I'd appreciate it if you could supply IC50 values for the items below.
target: mALDH1a2 (Mus musculus, UniProt Q62148); construct: pET-Aldh1a2 transformed BL21-DE3 cultures; cell extracts; test: biochemical; conditions: read-out: mAldhla2 IC50
Sequence (Q62148 whole entry): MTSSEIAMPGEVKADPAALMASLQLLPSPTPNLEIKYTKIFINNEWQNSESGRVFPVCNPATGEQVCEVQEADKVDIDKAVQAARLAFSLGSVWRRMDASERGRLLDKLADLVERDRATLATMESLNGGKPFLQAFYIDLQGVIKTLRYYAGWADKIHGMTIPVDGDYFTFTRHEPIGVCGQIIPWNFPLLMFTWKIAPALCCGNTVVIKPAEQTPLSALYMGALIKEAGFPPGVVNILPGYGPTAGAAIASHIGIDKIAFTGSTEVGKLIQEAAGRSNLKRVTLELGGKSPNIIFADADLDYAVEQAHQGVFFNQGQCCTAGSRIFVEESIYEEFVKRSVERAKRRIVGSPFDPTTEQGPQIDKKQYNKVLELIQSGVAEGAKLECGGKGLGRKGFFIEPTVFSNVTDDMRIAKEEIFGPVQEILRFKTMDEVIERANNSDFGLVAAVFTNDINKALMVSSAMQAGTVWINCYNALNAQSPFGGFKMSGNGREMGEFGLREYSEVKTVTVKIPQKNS
Reply with just the number (in µM).

IN: Please give the measured IC50 for this molecule: Cc1cnccc1C(=O)Nc1ccc2c(c1)CCC(=O)N2 [compound 21]
OUT: 32

IN: Please give the measured IC50 for this molecule: Cc1cc(C(=O)Nc2cc3c(cc2F)NC(=O)CC3)ccn1 [compound 16]
OUT: 10

IN: Please give the measured IC50 for this molecule: Cc1nc(Nc2ccc3c(c2)CC(C)(C)C(=O)N3)nc2ccccc12 [compound 132]
OUT: 0.053

IN: Please give the measured IC50 for this molecule: CC1(C)Cc2cc(Nc3ccc4ccccc4n3)ccc2NC1=O [compound 46]
OUT: 0.162

IN: Please give the measured IC50 for this molecule: O=C1CCc2cc(NC(=O)c3ccncc3)c(F)cc2N1 [compound 2]
OUT: 10

IN: Please give the measured IC50 for this molecule: CCc1cnccc1C(=O)Nc1ccc2c(c1)CC1(CC1)C(=O)N2 [compound 61]
OUT: 1.81

IN: Please give the measured IC50 for this molecule: O=C1CCc2cc(NC(=O)c3ccncc3C(F)(F)F)ccc2N1 [compound 54]
OUT: 0.224

IN: Please give the measured IC50 for this molecule: CCc1cnccc1CNc1cc2c(cc1F)NC(=O)CC2 [compound 3]
OUT: 3.33

IN: Please give the measured IC50 for this molecule: O=C1CCc2cc(Nc3ccc4ccccc4n3)ccc2N1 [compound 35]
OUT: 0.1

IN: Please give the measured IC50 for this molecule: O=C1CCc2cc(Nc3nccc4ccccc34)ccc2N1 [compound 22]
OUT: 25

IN: Please give the measured IC50 for this molecule: CC(C)c1cnccc1C(=O)Nc1cc2c(cc1F)NC(=O)CC2 [compound 6]
OUT: 10

====

PROPERTY: IC50

IN: Hi! What's the reported IC50 for "CCc1cnccc1CNc1cc2c(cc1F)NC(=O)CC2" on hALDH1a2 (Homo sapiens)?
OUT: 4 µM

IN: Hi! What's the reported IC50 for "CCc1c(C(=O)Nc2ccc3c(c2)CCC(=O)N3)ccnc1C" on hALDH1a2 (Homo sapiens)?
OUT: > 10 µM

IN: Hi! What's the reported IC50 for "CCCc1cnccc1C(=O)Nc1cc2c(cc1F)NC(=O)CC2" on hALDH1a2 (Homo sapiens)?
OUT: 9 µM

IN: Hi! What's the reported IC50 for "CCc1cnccc1C(=O)Nc1ccc2c(c1)CN(C)C(=O)N2" on hALDH1a2 (Homo sapiens)?
OUT: > 10 µM

IN: Hi! What's the reported IC50 for "CC1(C)Cc2cc(Nc3cnc4ccc(C(=O)O)cc4n3)ccc2NC1=O" on hALDH1a2 (Homo sapiens)?
OUT: > 10 µM

IN: Hi! What's the reported IC50 for "Cc1cc(C(=O)Nc2ccc3c(c2)CCC(=O)N3)ccn1" on hALDH1a2 (Homo sapiens)?
OUT: 100 µM

IN: Hi! What's the reported IC50 for "CN(C)Cc1cnccc1C(=O)Nc1ccc2c(c1)CCC(=O)N2" on hALDH1a2 (Homo sapiens)?
OUT: > 10 µM

IN: Hi! What's the reported IC50 for "N#Cc1cccc2ncc(Nc3ccc4c(c3)CCC(=O)N4)cc12" on hALDH1a2 (Homo sapiens)?
OUT: > 10 µM

IN: Hi! What's the reported IC50 for "CC(C)c1cnccc1C(=O)Nc1cc2c(cc1F)NC(=O)CC2" on hALDH1a2 (Homo sapiens)?
OUT: > 10 µM
